Recorded values, source patent US20240018123A1.

Reported values of Degradation (1 μM treated in LNCaP, % AR remaining) for individual entries
Target: Androgen receptor (AR) (Homo sapiens, UniProt P10275, T878A)
Construct: 5.5×10^5 LNCap cells were injected into each well of a 6-well plate; endogenous in cells; host or cells: LNCaP
Sequence (P10275 whole entry T878A): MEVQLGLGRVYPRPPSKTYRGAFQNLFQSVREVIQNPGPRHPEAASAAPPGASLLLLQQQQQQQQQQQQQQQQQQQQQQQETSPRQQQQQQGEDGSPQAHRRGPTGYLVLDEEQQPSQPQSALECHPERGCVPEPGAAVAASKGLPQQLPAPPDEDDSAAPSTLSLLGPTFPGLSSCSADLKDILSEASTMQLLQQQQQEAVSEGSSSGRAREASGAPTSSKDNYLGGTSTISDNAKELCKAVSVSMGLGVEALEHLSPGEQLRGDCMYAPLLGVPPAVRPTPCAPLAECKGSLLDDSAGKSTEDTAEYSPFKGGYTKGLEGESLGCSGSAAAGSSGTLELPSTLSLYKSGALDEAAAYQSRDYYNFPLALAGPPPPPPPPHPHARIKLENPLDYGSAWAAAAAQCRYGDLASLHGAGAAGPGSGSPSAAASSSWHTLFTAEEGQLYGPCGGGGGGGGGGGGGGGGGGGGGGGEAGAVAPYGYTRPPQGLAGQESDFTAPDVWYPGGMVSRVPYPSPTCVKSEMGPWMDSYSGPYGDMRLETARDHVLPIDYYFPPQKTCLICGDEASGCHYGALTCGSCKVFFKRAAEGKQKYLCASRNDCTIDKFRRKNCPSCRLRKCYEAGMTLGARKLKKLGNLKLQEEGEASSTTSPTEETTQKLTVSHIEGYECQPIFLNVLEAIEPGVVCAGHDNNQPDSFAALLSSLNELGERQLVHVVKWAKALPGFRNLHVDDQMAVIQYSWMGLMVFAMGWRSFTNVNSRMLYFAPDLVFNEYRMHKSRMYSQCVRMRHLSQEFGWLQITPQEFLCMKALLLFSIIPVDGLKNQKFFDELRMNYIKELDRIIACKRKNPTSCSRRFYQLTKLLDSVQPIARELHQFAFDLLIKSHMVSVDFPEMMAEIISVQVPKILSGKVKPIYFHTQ
Assay: Assessment of AR proteolytic activity (Western blotting of LNCap cell lysates)
Assay type: cell-based
Details: 24 hours of treatment, Western blotting quantified with Image J
Method: Assessment of AR Proteolytic Activity Androgen receptor (AR) proteolytic activity of the compound according to the present invention was evaluated as follows: Specifically, 5.5×10^5 LNCap cells were injected into each well of a 6-well plate. […] Western blotting was performed, and the results were quantified using Image J program.
A number alone suffices; assume %.

Please fill in: Degradation (1 μM treated in LNCaP, % AR remaining) reported for CC1(C)C(NC(=O)c2ccc(N3CC[C@H](CN4CCN(C5CCN(c6ccc7c(=O)n(C8CCC(=O)NC8=O)nnc7c6)CC5)CC4)C3)nc2)C(C)(C)C1Oc1ccc(C#N)c(Cl)c1 (stereo partly shown) = 33

Please fill in: Degradation (1 μM treated in LNCaP, % AR remaining) reported for CC1(C)[C@H](NC(=O)c2ccc(C#CC3CCN(CC4CCN(c5ccc6nnn(C7CCC(=O)NC7=O)c(=O)c6c5)CC4)CC3)cc2)C(C)(C)[C@H]1Oc1ccc(C#N)c(Cl)c1 (stereo partly shown) = 20

Please fill in: Degradation (1 μM treated in LNCaP, % AR remaining) reported for CC1(C)[C@H](NC(=O)c2ccc(N3CCC(CN4CCC5(CC4)CN(c4ccc6c(=O)n(C7CCC(=O)NC7=O)nnc6c4)C5)CC3)nc2)C(C)(C)[C@H]1Oc1ccc(C#N)c(Cl)c1 (stereo partly shown) = 11

Please fill in: Degradation (1 μM treated in LNCaP, % AR remaining) reported for CC1(C)C(NC(=O)c2ccc(N3CCN(CC4CCN(CCNC(=O)COc5ccc6nnn(C7CCC(=O)NC7=O)c(=O)c6c5)CC4)CC3)cc2)C(C)(C)C1Oc1ccc(C#N)c(Cl)c1 (stereo not shown) = 20.3

###

test system: VCaP cells
Binarize CC50 at 40 nM; below is Met, at or above is Not met.

Observe how each entry below is paired with its result.
| MOLECULE | ASSAY_SYSTEM | QUALITATIVE_LABEL |
| --- | --- | --- |
| CC1(C)C(NC(=O)c2ccc(N3CCN(CC4(O)CCN(C(=O)C5CN(c6ccc7nnn(C8CCC(=O)NC8=O)c(=O)c7c6)C5)CC4)CC3)cc2)C(C)(C)C1Oc1ccc(C#N)c(Cl)c1 (centres unmarked) | VCaP cells | Met |
| CC1(C)[C@H](NC(=O)c2ccc(N3CCN(CCC4CCN(c5cccc6nnn(C7CCC(=O)NC7=O)c(=O)c56)CC4)CC3)cc2)C(C)(C)[C@H]1Oc1ccc(C#N)c(Cl)c1 (some centres unmarked) | VCaP cells | Not met |
| CC1(C)C(NC(=O)c2ccc(-n3cc(CC4CCN(C(=O)C5CN(c6ccc7nnn(C8CCC(=O)NC8=O)c(=O)c7c6)C5)CC4)nn3)cc2)C(C)(C)C1Oc1ccc(C#N)c(Cl)c1 (centres unmarked) | VCaP cells | Met |

Enquiry: Does CC1(C)C(NC(=O)c2ccc(N3CCN(C(=O)COc4ccc5nnn(C6CCC(=O)NC6=O)c(=O)c5c4)CC3)cc2)C(C)(C)C1Oc1ccc(C#N)c(Cl)c1 (centres unmarked) have CC50 strictly under 40 nM?
Return: Met

Enquiry: Does CC1(C)[C@H](NC(=O)c2ccc(C#CC3CCN(C(=O)CNc4ccc5nnn(C6CCC(=O)NC6=O)c(=O)c5c4)CC3)cc2)C(C)(C)[C@H]1Oc1ccc(C#N)c(Cl)c1 (some centres unmarked) have CC50 strictly under 40 nM?
Return: Met
